Quick reference for growth among some compounds
# Test system: HS 578T breast
# measurement_notes: NCI-60 one-dose screen, 48 h (100 = growth as untreated, 0 = no growth, -100 = all killed)
# test_conditions: 10 µM unless noted
# Method: Growth inhibition of the HS 578T human tumor cell line is measured as a screen for anti-cancer activity. Cells are grown in 96 well plates and exposed to the test compound for 48 hours. Compounds are tested at a single concentration, which is 10^-5 M for most compounds. The reported endpoint is percent growth (GI% or GIPRCNT), where numbers from 0 - 100% represent growth inhibition, and numbers from -100% - 0 represent cell death. For example, a value of 40 represents 60% growth inhibition. […]
Compounds without any hit were thinned out: in the full panel of roughly 83,000, 20% have a hit.
Give just the number in %; leave the unit off.

Please review the following examples before continuing.
compound | numeric_value
CN(C)CCOc1ccc(C(=O)C2[C@H](c3ccc(Cl)cc3)[C@@H](c3ccccc3)NC23C(=O)Nc2ccc(Cl)cc23)cc1 (some centres undefined) | -29.4
N#Cc1cc(-c2ccnc(Nc3ccc(N4CCN(C5COC5)CC4)cc3)n2)ccc1N1CCCC1 | 21.6
CS(=O)(=O)Nc1cc(-c2ccc3ncnc(Nc4ccc(OCc5cccnc5)c(Cl)c4)c3c2)cnc1Cl | -25.3

Consider the record given below.
Q: Would you kindly share the measured growth for Cc1ccc(C2CC(c3ccc(NC(=O)Nc4ccccc4)cc3)=NN2c2ccc(S(N)(=O)=O)cc2)cc1 (centres undefined) ?
Ans: -28.7
